Provide the reported melting point of each item.
Please state the figure in °C; there is no need to write the unit.

Requested field: melting point. Item: NC(Cc1ccccc1)P(=O)(CC(Cc1ccccc1)C(=O)N[C@@H](Cc1ccccc1)C(=O)OCc1ccccc1)OCc1ccccc1.O=CO (stereo partly shown)
192

Next compound up: Br.NC(Cc1ccccc1)P(=O)(O)CC(Cc1ccccc1)C(=O)N[C@H](CC(=O)O)Cc1ccccc1 (stereo partly shown)
240

Next compound up: CC(N)P(=O)(O)CC(Cc1ccc(-c2ccccc2)cc1)C(=O)N[C@@H](C)C(=O)OCc1ccccc1.O=C(O)C(F)(F)F (stereo partly shown)
205

Next compound up: NC(Cc1ccccc1)P(=O)(O)CC(Cc1ccccc1)C(=O)N[C@@H](Cc1ccccc1)C(=O)OCc1ccccc1.O=C(O)C(F)(F)F (stereo partly shown)
210

// provenance: patent US6518260B1
